Experiment: Progesterone solubility study in different solvent systems
Type: physicochemical
Settings: oil or lipid, thermodynamic from solid; in MIGLYOL 812 + D-L α Tocopherol Care (85:15); room temperature, visual
Experimental: Solubility of progesterone was determined on a visual basis by adding progesterone incrementally to a certain quantity of solvent at room temperature until a supersaturated solution was formed.
ENDPOINT_NAME: solubility (mg/mL)
Give the quantity in mg/mL, number only.

Request: So what does the record say about solubility for `CC(=O)[C@H]1CC[C@H]2[C@@H]3CCC4=CC(=O)CC[C@]4(C)[C@H]3CC[C@]12C` ?
Result: 38.2

====

experiment: Exposure, tissue distribution and metabolite profile (progesterone, ALLO, ALLO-sulfate in plasma, salivary gland, uterus) in ovariectomized rats; assay type: in vivo; conditions: female, Crl:CD, uterus/plasma, 10 mg/kg/day; rat; SC route; read-out: Ratio of progesterone levels in the uterus to plasma
ENDPOINT_NAME: Kp at 2 h
Reply with just the number.

Request: So what does the record say about Kp at 2 h for `CC(=O)[C@H]1CC[C@H]2[C@@H]3CCC4=CC(=O)CC[C@]4(C)[C@H]3CC[C@]12C` ?
Result: 7.3
